- method description: Inhibition of hedgehog receptor mediated Ptch1 transcription
measured metric: EC50 (nM)

1) CC1=C2C[C@H]3[C@@H](CC=C4C[C@@H](O)CC[C@@]43C)[C@@H]2CC[C@]12O[C@@H]1C[C@H](C)CN[C@H]1[C@H]2C [CYCLOPAMINE]	300

----------
- method description: Agonist activity at hedgehog receptor
- Format: functional
pEC50: −log10 of the molar value.
measured metric: pEC50

1. c1ccc2c(Oc3nc(Nc4ccc(N5CCOCC5)cc4)c4ncn(C5CCCCC5)c4n3)cccc2c1	6.00
2. CC(C)CCC[C@](C)(O)[C@H]1CC[C@H]2[C@@H]3CC=C4C[C@@H](O)CC[C@]4(C)[C@H]3CC[C@@]21C	7.00
3. C[C@H](CCCC(C)(C)O)[C@H]1CC[C@H]2[C@@H]3CC=C4C[C@@H](O)CC[C@]4(C)[C@H]3CC[C@]12C	6.00
4. CC(C)CC[C@H](O)[C@@H](C)[C@H]1CC[C@H]2[C@@H]3CC=C4C[C@@H](O)CC[C@]4(C)[C@H]3CC[C@]12C	6.70
5. CC(C)[C@@H](O)CC[C@@H](C)[C@H]1CC[C@H]2[C@@H]3CC=C4C[C@@H](O)CC[C@]4(C)[C@H]3CC[C@]12C	5.52
6. CN[C@H]1CC[C@H](N(Cc2cccc(-c3ccncc3)c2)C(=O)c2sc3ccccc3c2Cl)CC1	5.52

----------
- method description: Antagonist activity at hedgehog receptor
- Format: functional
Each record is given true if its reported IC50 is strictly below 700 nM. Records at or above 700 nM are given false.

1. CN(C)c1ccccc1CN1CCCN(Cc2ccccc2N(C)C)C1c1ccncc1	false
2. COCCOC(=O)C1=C(C)NC2=C(C(=O)CC(c3ccccc3OC)C2)C1c1cccc(O)c1 (centres undefined)	false
3. CCCN[C@H]1CC[C@H](N(Cc2cccc(-c3ccncc3)c2)C(=O)c2sc3ccccc3c2Cl)CC1	true
4. c1cc(-c2sc(-c3ccncc3)c(-c3ccncc3)c2-c2ccncc2)ccn1	false
5. C[C@@]12C[C@H]3OC(=O)[C@@H]1CO[C@]14O[C@]5([C@H]2C1=O)[C@@](O)(CC[C@H]1[C@H]4C[C@H]2O[C@]24CC=CC(=O)[C@]14C)C(=O)O[C@@]35C	true
6. CC1=C2C[C@H]3[C@@H](CC=C4CC(=O)CC[C@@]43C)[C@@H]2CC[C@]12O[C@@H]1C[C@H](C)CN(CCNC(=O)CCCCCNC(=O)CCc3ccccc3)[C@H]1[C@H]2C	true
7. O=C(C[C@@H]1C/C=C/CCC(=O)O[C@H](c2ccccc2)CNC1=O)NCc1ccc(Cl)cc1	false
8. CCOc1cc(C(=O)Nc2ccc(Cl)c(-c3nc4ccccc4[nH]3)c2)cc(OCC)c1OCC	true
9. CS(=O)(=O)c1ccc(C(=O)Nc2ccc(Cl)c(-c3ccccn3)c2)c(Cl)c1	true
10. CC1=C2C[C@H]3[C@@H](CCC4=CC(=O)CC[C@@]43C)[C@@H]2CC[C@@]2(C1)O[C@@H]1C[C@H](C)CNC1[C@H]2C (single isomer, unassigned)	true
11. CC1=C2C[C@H]3[C@@H](CC[C@@H]4CNC(=O)CC[C@@]43C)[C@@H]2CC[C@@]2(C1)O[C@@H]1C[C@H](C)CN[C@@H]1[C@H]2C	true
12. CCC(C)n1ncn(-c2ccc(N3CCN(c4ccc(OCC5COC(Cn6cncn6)(c6ccc(Cl)cc6Cl)O5)cc4)CC3)cc2)c1=O (centres undefined)	false
13. CC1=C2C[C@H]3[C@@H](CC[C@@H]4C[C@H](NS(C)(=O)=O)CC[C@@]43C)[C@@H]2CC[C@@]2(C1)O[C@@H]1C[C@H](C)CN[C@@H]1[C@H]2C	true
14. CC1=C2C[C@H]3[C@@H](CC[C@@H]4Cc5n[nH]cc5C[C@@]43C)[C@@H]2CC[C@@]2(C1)O[C@@H]1C[C@H](C)CN[C@@H]1[C@H]2C	true
